The measurements presented in this section are drawn from patent US20250074911A1.

Biological target: BTK C481S (Homo sapiens (Human), UniProt Q06187, C481S)
Sequence (Q06187 whole entry C481S): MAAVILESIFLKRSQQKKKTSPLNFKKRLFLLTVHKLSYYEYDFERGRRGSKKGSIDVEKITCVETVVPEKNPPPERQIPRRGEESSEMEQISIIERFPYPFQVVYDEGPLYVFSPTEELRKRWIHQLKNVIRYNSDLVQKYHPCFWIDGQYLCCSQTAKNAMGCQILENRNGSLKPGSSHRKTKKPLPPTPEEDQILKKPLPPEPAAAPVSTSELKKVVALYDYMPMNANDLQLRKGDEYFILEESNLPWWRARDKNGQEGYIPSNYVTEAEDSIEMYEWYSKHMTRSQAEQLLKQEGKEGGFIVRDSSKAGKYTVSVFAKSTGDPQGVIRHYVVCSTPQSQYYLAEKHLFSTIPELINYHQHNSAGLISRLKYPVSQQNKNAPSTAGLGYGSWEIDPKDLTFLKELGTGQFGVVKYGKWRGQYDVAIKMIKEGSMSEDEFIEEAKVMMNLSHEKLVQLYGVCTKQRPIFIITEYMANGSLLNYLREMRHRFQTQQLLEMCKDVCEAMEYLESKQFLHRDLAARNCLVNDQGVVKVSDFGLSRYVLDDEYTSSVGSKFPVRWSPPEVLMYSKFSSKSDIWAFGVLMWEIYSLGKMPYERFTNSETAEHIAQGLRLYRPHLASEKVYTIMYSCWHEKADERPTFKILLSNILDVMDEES
Assay: Binding kinetics measurements (Surface Plasmon Resonance) on BTK C481S
Conditions: binding affinity by Surface Plasmon Resonance (SPR)
pKd: −log10 of the molar value.
Experimental Readout: pKd

C[C@@H]1CCn2nc(-c3ccc(C(=O)Nc4cc(C(F)(F)F)ccn4)cc3)c3c(N)ncc(c32)/C=C/CCCC(=O)N1 [Example 76] | > 8.30
Nc1ncc2c3c1c(-c1ccc(C(=O)Nc4cc(C(F)(F)F)ccn4)cc1)nn3[C@@H]1CCC[C@H](C1)NC(=O)CCNC/C=C/2 [Example 21] | > 8.30

Per the records, this molecule ( Nc1ncc2c3c1c(-c1ccc(C(=O)Nc4cc(C(F)(F)F)ccn4)cc1)nn3[C@@H]1CCC[C@H](C1)NC(=O)CCCCCC2 [Example 114] ) has pKd equal to > 8.30
